B1: C10orf62 (parent)
chain: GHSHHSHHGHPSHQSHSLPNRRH

variants of: B1; assay: protein stability index of a GFP-peptide fusion (GPS, HEK-293T) (PSI 1-6); higher = more stable; settings: c terminus: native;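 further: lentivirally expressed fusions sorted by FACS into six bins by GFP to DsRed ratio, PSI derived from sequencing read proportions per bin multiplied by bin number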
Short version: protein stability index at least 3 is class 1, less is class 0.

Here are 3 variants together with their reported answers.
>>> classlabel("Q14T")
"class 1"
>>> classlabel("R22Q")
"class 0"
>>> classlabel("P11D")
"class 0"

Q) hey, is protein stability index for this one >= 3? H23M
A) class 0

Q) hey, is protein stability index for this one >= 3? S17E
A) class 0

Q) hey, is protein stability index for this one >= 3? L18K
A) class 0

Q) hey, is protein stability index for this one >= 3? Q14R
A) class 1

Q) hey, is protein stability index for this one >= 3? H7N
A) class 0

Q) hey, is protein stability index for this one >= 3? G1K
A) class 0

Q) hey, is protein stability index for this one >= 3? S3F
A) class 0

Q) hey, is protein stability index for this one >= 3? L18P
A) class 0

Q) hey, is protein stability index for this one >= 3? H16I
A) class 1

Q) hey, is protein stability index for this one >= 3? S12M
A) class 0

Q) hey, is protein stability index for this one >= 3? S12N
A) class 1

Q) hey, is protein stability index for this one >= 3? N20T
A) class 1

Q) hey, is protein stability index for this one >= 3? Q14K
A) class 0
